Assay Target: T1, CTLA4-his (UniProt P16410 36-161, limits assumed)
T1 construct: construct not described; also called Ag CTLA4-his; Antigen CTLA4-his; not shown: his tag
T1 sequence (looked up): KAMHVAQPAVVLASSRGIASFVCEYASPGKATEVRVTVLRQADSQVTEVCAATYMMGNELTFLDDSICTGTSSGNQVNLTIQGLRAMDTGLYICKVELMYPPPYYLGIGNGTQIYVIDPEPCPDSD
Protocol Description: SPR Biacore T200, antibody from supernatant captured by anti-human Fc, CTLA4-his injected
Here, each record is paired with measured kon data.
Readout Kind: kon (M⁻¹ s⁻¹)

Binder	Readout Kind	Experimental Result
Humanized Ab 10 (VH4 + VL1) (antibody, human IgG1, kappa, V domains shown, Humanized IgG1 derived from MAb A4, full length, HEK293) VH: QVQLVQSGAEVKKPGASVKISCKASGYKFTDHFINWVKQAPGQGLEWIGDINPNNGGTNSNQKFEGRATLTVDTSISTAYMELSRLRSDDTAVYYCARLRREYFYAMDYWGQGTLVTVSS VL: DIVMTQSPLSLPVTPGEPASISCRSSKSLLHSNGITYLYWYLQKPGQSPQLLIYQMSNLASGVPDRFSGSGSGTDFTLKISRVEAEDVGVYYCAQNLELPLTFGGGTKVEIKR	kon	338000
Humanized Ab 8 (VH3 + VL2) (antibody, human IgG1, kappa, V domains shown, Humanized IgG1 derived from MAb A4, full length, HEK293) VH: QVQLVQSGAEVKKPGASVKVSCKASGYKFTDHFINWVKQAPGQGLEWIGDINPNNGGTNSNQKFEGRVTLTVDTSISTAYMELSRLRSDDTAVYYCARLRREYFYAMDYWGQGTLVTVSS VL: DIVMTQSPLSLPVTPGEPASISCRSSKSLLHSNGITYLYWYLQKPGQSPQLLIYQMSNLASGVPDRFSSSGSGTDFTLKISRVEAEDVGVYYCAQNLELPLTFGGGTKVEIKR	kon	661000
